Molecular target: UniProt P50406
Sequence (P50406 whole entry): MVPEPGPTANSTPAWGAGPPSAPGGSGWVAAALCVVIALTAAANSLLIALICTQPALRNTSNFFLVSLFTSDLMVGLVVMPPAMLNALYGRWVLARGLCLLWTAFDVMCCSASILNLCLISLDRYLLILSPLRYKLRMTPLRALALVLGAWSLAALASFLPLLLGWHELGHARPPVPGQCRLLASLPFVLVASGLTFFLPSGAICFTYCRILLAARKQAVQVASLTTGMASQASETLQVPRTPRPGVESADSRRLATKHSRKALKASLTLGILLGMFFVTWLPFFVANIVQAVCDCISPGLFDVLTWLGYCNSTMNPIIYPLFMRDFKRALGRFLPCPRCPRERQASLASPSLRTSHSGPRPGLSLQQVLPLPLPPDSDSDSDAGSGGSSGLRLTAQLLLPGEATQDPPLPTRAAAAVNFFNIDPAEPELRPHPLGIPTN
Assay: CHO-human-5HT6-Aequorin functional assay (ago-/antagonism)
Conditions: antagonist effect vs 10^-6 M α-methylserotonin induced luminescence; test concentration not given
Assign % inhibition of control antagonist response to each entry below.
Numbers only, in %.

{"columns": ["compound", "result"],
 "data": [
  ["Cc1c(S(=O)(=O)n2ccc3c(N4CCNCC4)nc4ccccc4c32)sc2ccc(Cl)cc12", 37.7]
]}

For every item below, please supply its % inhibition of control antagonist response.
1. O=S(=O)(c1cccc2cccnc12)n1ccc2c(N3CCNCC3)nc3ccccc3c21
2. COc1cccc(S(=O)(=O)n2ccc3c(NC4CCNC4)nc4ccccc4c32)c1 (stereo not drawn)
3. O=S(=O)(c1cccc(F)c1)n1ccc2c(NC3CCNC3)nc3ccccc3c21 (stereo not drawn)
4. O=S(=O)(c1cccc2ccccc12)n1ccc2c(NC3CCNC3)nc3ccccc3c21 (stereo not drawn)
5. CN1CCN(c2nc3ccccc3c3c2ccn3S(=O)(=O)c2cccc3cccnc23)CC1

// result
1. 75.8
2. 68.8
3. 80.8
4. 60.0
5. 61.0

All values here come from patent US20170239237A1.
